All figures here come from PubChem BioAssay (NCI).

system: RPMI-8226 leukemia; assay: NCI tumour cell line growth inhibition, 48 h
Listed here are compounds together with their documented TGI.
PARAMETER: TGI (µM)

COMPOUND | RESULT_OPERATOR | RESULT_NUMBER
CCOC(=O)c1c2c3c(cccc3[nH]c1=O)Sc1ncccc1-2 | = | 38.4
O=c1c2cc(-c3ccccc3)sc2nc2n1N=C(c1ccccc1)CS2 | > | 100
NCCSc1nc2ccccc2s1 | = | 95.7
C/C=C/[C@H]1O[C@@](O)([C@@H](C)[C@H](O)[C@H](C)[C@H]2OC(=O)/C(OC)=C/C(C)=C/[C@@H](C)[C@@H](O)[C@@H](CC)[C@@H](O)[C@H](C)C/C(C)=C/C=C/[C@@H]2OC)C[C@H](OC2CC(O)C(O)C(C)O2)[C@@H]1C (some centres undefined) | < | 0.0075
O=C(/C=C1\N=C(c2ccccc2)N(c2nc3ccc(Sc4ccccc4)cc3[nH]2)C1=O)/C=C/c1ccccc1 | = | 60.9
Clc1ncnc(Cl)c1Cl | > | 100
CCOC(=O)c1ccc(Nc2cnc3cc(C(F)(F)F)ccc3n2)cc1 | > | 100
CCOc1ccc2nc(-c3ccc(O)cc3)sc2c1 | = | 2.63
OCC1OC(n2nc(-c3ccccc3)nc2-c2cnccn2)C(O)C(O)C1O (centres undefined) | > | 100
